Data origin: patent US20220017512A1

- assayed.system: Recombinant human TRKB (Homo sapiens, UniProt Q16620)
- Sequence (Q16620 32-822): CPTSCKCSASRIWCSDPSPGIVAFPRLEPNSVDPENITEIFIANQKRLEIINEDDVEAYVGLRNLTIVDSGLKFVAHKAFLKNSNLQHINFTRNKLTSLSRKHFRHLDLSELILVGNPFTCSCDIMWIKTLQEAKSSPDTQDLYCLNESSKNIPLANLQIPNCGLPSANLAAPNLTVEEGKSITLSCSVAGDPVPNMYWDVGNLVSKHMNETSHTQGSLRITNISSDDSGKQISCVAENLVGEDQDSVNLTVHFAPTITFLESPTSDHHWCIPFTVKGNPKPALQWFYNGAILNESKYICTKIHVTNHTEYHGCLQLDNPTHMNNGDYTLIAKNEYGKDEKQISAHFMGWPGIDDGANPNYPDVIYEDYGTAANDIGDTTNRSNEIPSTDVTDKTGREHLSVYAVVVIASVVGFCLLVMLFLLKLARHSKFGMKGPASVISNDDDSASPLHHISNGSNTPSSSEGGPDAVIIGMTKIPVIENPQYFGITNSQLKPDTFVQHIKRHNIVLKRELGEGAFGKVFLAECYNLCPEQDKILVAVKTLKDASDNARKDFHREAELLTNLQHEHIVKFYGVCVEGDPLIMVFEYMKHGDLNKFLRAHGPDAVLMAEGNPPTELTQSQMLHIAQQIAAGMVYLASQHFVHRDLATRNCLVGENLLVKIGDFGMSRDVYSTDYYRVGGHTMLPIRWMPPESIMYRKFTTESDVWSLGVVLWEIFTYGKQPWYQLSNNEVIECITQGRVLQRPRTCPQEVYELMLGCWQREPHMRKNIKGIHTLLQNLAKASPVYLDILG
- protocol: In vitro activity test on TRKB kinase (HTRF KinEASE TK)
- test.settings: 4.77 μM ATP, 50 min
pIC50: −log10 of the molar value.
metric: pIC50

Previously resolved entries follow.
• COc1ccc(CNc2ccnc3ccc(N4CCC[C@@H]4c4cc(F)ccc4F)nc23)cc1 = > 7.30
• OC1CCC(Nc2ccnc3ccc(N4CCC[C@@H]4c4cc(F)ccc4F)nc23)C1 (stereo partly shown) = > 7.30
• Fc1ccc(F)c([C@H]2C[C@H](F)CN2c2ccc3ncc(Cl)c(-c4cnn(C5CCNCC5)n4)c3n2)c1 = > 9.00
• Fc1ccc(F)c([C@H]2C[C@H](F)CN2c2ccc3ncc(Cl)c(-c4ccc(C5CCNCC5)nc4)c3n2)c1 = > 8.00
• O[C@H]1CCN(c2ccc(-c3ncnc4ccc(N5C[C@@H](F)C[C@@H]5c5cc(F)ccc5F)nc34)cn2)C1 = > 9.00
• Fc1ccc(F)c([C@H]2C[C@H](F)CN2c2ccc3ncc(Cl)c(-c4cnn([C@@H]5CCNC5)c4)c3n2)c1 = > 8.00

Please turn your attention to the following entry.
// query pIC50 value for entry "OC[C@@H](O)CN1CCC(n2cc(-c3c(Cl)cnc4ccc(N5C[C@@H](F)C[C@@H]5c5cc(F)ccc5F)nc34)cn2)CC1"
> 9.00
